# Test system: AHR-regulated gene CYP1A1 in human monocytic U937 cell line
# method-summary: AHR-regulated CYP1A1 expression in U937 cells (qPCR, kynurenic acid stimulated)
# Assay type: cell-based
# test-settings: U-937, 200 μM KA, 16 hours, CYP1A1 vs GAPDH, read-out: Cyp ANATAG mode assay: IC50
measure-name: IC50

Example cases with answers are listed next.
molecule: CN(C)C(=O)C(C)(C)NC(=O)c1cc(-c2ccc(OC(F)(F)F)cc2)nn(-c2cnn(C)c2)c1=O [Compound 168]
IC50: 100 to 400 nM

molecule: C[C@@H](CO)NC(=O)c1cc(-c2ccc(-c3cccc(F)c3)nc2)nn(-c2cnn(C)c2)c1=O [Compound 191]
IC50: < 100 nM

molecule: COC[C@H](C)NC(=O)c1cc(-c2ccc(C(C)C)cc2)nn(-c2cnn(C)c2)c1=O [Compound 206]
IC50: < 100 nM

Give IC50 for each of the items listed below.
1. Cc1nn(C)c2cc(-c3cc(C(=O)N[C@@H](C)C(=O)N(C)C)c(=O)n(-c4cnn(C)c4)n3)ccc12 [Compound 176]
2. COC[C@H](C)NC(=O)c1cc(-c2ccc3c(C)nn(C)c3c2)nn(-c2cnn(C)c2)c1=O [Compound 123]

Data returned:
1. 100 to 400 nM
2. < 100 nM

Give IC50 for each of the items listed below.
1. O=C(N[C@H]1CCCCNC1=O)c1cc(-c2ccc(Cl)cc2)nn(-c2cccc(F)c2)c1=O [28 - *stereo-pure]
2. COC[C@H](C)NC(=O)c1cc(-c2ccc(C(F)(F)F)cc2)nn(-c2cnn(C)c2)c1=O [Compound 70]
3. CNC(=O)C(C)(C)NC(=O)c1cc(-c2ccc(Cl)cc2)nn(-c2cnn(C)c2)c1=O [Compound 95]
4. CC(C)c1ccc(-c2cc(C(=O)N[C@@H](C)CO)c(=O)n(-c3cnn(C)c3)n2)cc1 [Compound 202]

Data returned:
1. < 100 nM
2. < 100 nM
3. < 100 nM
4. < 100 nM

Give IC50 for each of the items listed below.
1. CNC(=O)[C@H](C)NC(=O)c1cc(-c2cnc(-c3ccc(Cl)cc3)nc2)nn(-c2cnn(C)c2)c1=O [Compound 181]
2. C[C@@H](CO)NC(=O)c1cc(-c2ccc(-c3ccc(F)cc3)nc2)nn(-c2cnn(C)c2)c1=O [example 184]
3. COC[C@H](C)NC(=O)c1cc(-c2ccc(-c3ccc(Cl)cc3)nc2)nn(-c2cnn(C)c2)c1=O [Compound 156]
4. C[C@H](NC(=O)c1cc(-c2ccc(C(F)(F)F)cc2)nn(-c2cnn(C)c2)c1=O)C(=O)N(C)C [Compound 150]
5. COC[C@H](C)NC(=O)c1cc(-c2ccc(C(=O)N(C)C)cc2)nn(-c2cnn(C)c2)c1=O [Compound 90]
6. C[C@@H](CO)NC(=O)c1cc(-c2ccc(-c3ccc(F)nc3)nc2)nn(-c2cnn(C)c2)c1=O [Compound 195]

Data returned:
1: 100 to 400 nM; 2: < 100 nM; 3: < 100 nM; 4: < 100 nM; 5: < 100 nM; 6: < 100 nM
